Test system: HT29 colon
assayInfo: NCI tumour cell line growth inhibition, 48 h; in the data active = GI50 below about 0.43 µM; inactive = the rest
Your reply should match one of these outcome classes. active, inactive

• COc1ccc2cc(C(=O)/C=C/c3ccco3)ccc2c1 = inactive
• Cc1cn2c(/C=N/N=C(N)N)c(-c3cc(Cl)sc3Cl)nc2s1 = inactive
• O=C(Nc1cccc(-n2cc(-c3ccncc3)c(-c3ccc(O)c(Cl)c3)n2)c1)c1ccc(N2CCOCC2)c(C(F)(F)F)c1 = inactive
• O=C1CCCC(=O)C1C(=O)c1ccc(C(F)(F)F)cc1[N+](=O)[O-] = inactive
• C/C=C1\C[C@@H]2C(OC)Nc3cc(O)c(OC)cc3C(=O)N2C1 (stereo not given in full) = active

IN: Given `CC#CC(=O)N[C@H]1CCCN(c2c(F)cc(C(N)=O)c3[nH]c(C)c(C)c23)C1` , state the outcome it received in this test.
OUT: inactive

IN: Do the same for `O=C1C(Cl)=C(Nc2cccc(O)c2)C(=O)N1c1ccc(Cl)cc1Cl` please
OUT: inactive

IN: // same read-out, input: `[O]=[W](=[O])([OH])[OH]`
OUT: inactive

IN: Next entry: `C(=C\c1nc2ccccc2s1)/c1ccc(N2CCOCC2)s1`
OUT: inactive

IN: Then this compound: `COC(=O)c1cc(NC(=O)CN(CCN(CC(=O)O)CC(=O)Nc2ccc(O)c(C(=O)OC)c2)CC(=O)O)ccc1O`
OUT: inactive

---

Tested on: SNB-19 CNS
assayInfo: NCI tumour cell line growth inhibition, 48 h
endpointName: TGI

IN: What TGI value was documented for this compound, `C=CCN(c1cc(OCc2ccccc2)c2c(c1)c(C)cn2S(=O)(=O)c1ccccc1)S(C)(=O)=O` ?
OUT: > 100 µM

IN: One more compound: `CS(=O)(=O)c1ccc(-c2[nH]c3ccc(F)cc3c2/C=N/NC(N)=S)cc1`
OUT: > 100 µM

IN: Please give the result for COc1ccc(C(=O)C(CC2C(=O)CC(C)(C)C(C(=O)C(=O)Nc3c(C)cccc3C)C2=O)c2ccc(OC)cc2)cc1 (stereo not given) too.
OUT: > 100 µM

IN: Also COC(=O)C1CCC[C@H]2C(CO)=C(C)C(=O)[C@@H]12 (stereo not given in full) , if possible.
OUT: > 100 µM

IN: Please do the same for CCCCCCCSCC1OC(n2cnc3c(N)ncnc32)C(O)C1O (stereo not given) as well.
OUT: > 100 µM

IN: And what about the compound O=C1CCCCCCCCCCC1CN(Cc1ccccc1)Cc1ccccc1 (stereo not given) ?
OUT: > 100 µM

IN: Would you kindly repeat that for `CC(C)NCCCCCNc1cc(O)cc2cccnc12` ?
OUT: > 100 µM

IN: Then this compound: `O=C1c2ccccc2-n2c1nc1cc(Cl)ccc1c2=O`
OUT: > 100 µM

IN: Would you mind doing `COc1cc(O)c2c(c1O)C(=O)c1cc(C)ncc1C2=O` as well?
OUT: > 50 µM

IN: Would you mind doing Cc1cc(S(=O)(=O)Nc2nc(N)nc(N(C)C)n2)c(SC(C(=O)O)c2ccccc2)cc1Cl (stereo not given) as well?
OUT: > 10 µM

IN: Param item: `CN/N=C(/CC(=O)c1sc(-n2nc(-c3ccccc3)cc2-c2ccccc2)nc1C)C(=O)Nc1ccc(Cl)c(Cl)c1`
OUT: > 100 µM

IN: Follow-up entry: `CCOC(=O)NN(C(=O)OCC)C(C(=O)c1ccc(Cl)cc1)=C1NCCN1`
OUT: > 100 µM

IN: Then `COc1cc([N+](=O)[O-])c(OC)cc1-c1nc2n(c1/C(N)=N/C(=N)N)CCS2` ?
OUT: > 100 µM

IN: Also Cc1ccc(C2SC(N)=Nc3c2c(C)nn3C(=O)c2ccc(Cl)cc2)cc1 (stereo not given) , if possible.
OUT: > 10 µM

---

System: NCI/ADR-RES ovarian
assayInfo: NCI tumour cell line growth inhibition, 48 h
endpointName: TGI

Answered examples (4):
• CCCC(=O)Nc1ncnc2c1ncn2C1OC2COP(=O)(O)OC2C1OC(=O)CCC (configuration not stated) = > 1000 µM
• O=C(O)c1nc2cc(C(F)(F)F)ccc2[nH]c1=O = > 100 µM
• O=C1c2ccccc2-n2c1nc1cc(Cl)ccc1c2=O = > 100 µM
• CC1=C2c3ccccc3N(S(=O)(=O)c3ccccc3)[C@H]2[C@H](C(=O)N2C3CC4CC[C@@]3(CS2(=O)=O)C4(C)C)CC1 (some centres not stated) = > 100 µM

IN: Which measured TGI value corresponds to `COc1cc(C(=O)Nc2cc(O)c(C/C=C(\C)CCC=C(C)C)c(O)c2)cc2c1O[C@]1(C)CC[C@@H](O)C(C)(C)[C@H]1C2` ?
OUT: > 76.4 µM

IN: Now consider `CSc1n[nH]c2n[nH]c(C)c12` and answer again.
OUT: > 100 µM

IN: // query: `CC(C)N(C(=O)c1ccc(NCc2cc(O)ccc2O)cc1)C(C)C`
OUT: 42.9 µM

IN: What do we get for `CC(C)NCCCCCNc1cc(O)cc2cccnc12` ?
OUT: > 100 µM

IN: Further, for COc1ccc(N2C(=O)C3c4[nH]c5cc(Cl)ccc5c4C4CCC(C(C)(C)C)CC4C3C2=O)cc1 (configuration not stated) ?
OUT: > 100 µM

---

Test system: OVCAR-4 ovarian
assayInfo: NCI tumour cell line growth inhibition, 48 h; in the data active = GI50 below about 0.43 µM; inactive = the rest
Please answer using one outcome listed in True = active, False = inactive

• Cc1csc(-c2ccc3c(c2)COC3(CCCN(C)C)c2ccc(F)cc2)c1 (stereo unspecified) = False
• O=C1C(Cl)=C(Nc2cccc(O)c2)C(=O)N1c1ccc(Cl)cc1Cl = False
• Cc1cccc2c1NC(=O)C2(c1ccc(O)cc1)c1ccc(O)cc1 = True
• COc1ccc2cc(C(=O)/C=C/c3ccco3)ccc2c1 = False
• CC(=O)Nc1ccc(S(=O)(=O)c2ccc(NC(C)=O)cc2)cc1 = False

Now look at this one.
IN: Could you check what this test reported for `C(=C\c1nc2ccccc2s1)/c1ccc(N2CCOCC2)s1` ?
OUT: False

---

System: PC-3 prostate
assayInfo: NCI tumour cell line growth inhibition, 48 h; in the data active = GI50 below about 0.43 µM; inactive = the rest
Answer with one of the outcomes active, inactive

IN: Tell me the assay call for `CN1CCN(CCCOc2ccc3nc(Nc4ccc(C(F)(F)F)c(Cl)c4)ccc3c2)CC1` please.
OUT: inactive

IN: Now consider `CCCN(CCC)c1ccc(/C=N/NC(=O)c2cccnc2)cc1` and answer again.
OUT: inactive

IN: Next entry: `O=C1C(Cl)=C(Nc2ccccn2)C(=O)c2ccccc21`
OUT: inactive

IN: Now try `Cc1[nH]c2ccccc2c1C1=CC(=O)C=CC1=O` .
OUT: inactive

IN: Do the same for O=C(OC(CNc1c(C(=O)c2ccccc2)c(=O)n(Cc2ccccc2)c(=O)n1Cc1ccccc1)CN1CCCCC1)c1ccccc1 (stereo unspecified) please
OUT: inactive

IN: Ok, now `O=C1CCCC(=O)C1C(=O)c1ccc(C(F)(F)F)cc1[N+](=O)[O-]`
OUT: inactive

IN: And what about the molecule `COc1cc([N+](=O)[O-])c(OC)cc1-c1nc2n(c1/C(N)=N/C(=N)N)CCS2` ?
OUT: inactive

IN: Check `O=C(Nc1ccc(O)c(NS(=O)(=O)c2ccc(F)cc2)c1)c1ccc(-c2ccccc2)cc1` too.
OUT: inactive

IN: Now consider `N=C(N)c1ccc(-c2ccc(-c3ccc(Cl)c(Cl)c3)o2)nc1` and answer again.
OUT: inactive

IN: Repeat with `C(=C\c1nc2ccccc2s1)/c1ccc(N2CCOCC2)s1`
OUT: inactive

IN: What do you get for `CC#CC(=O)N[C@H]1CCCN(c2c(F)cc(C(N)=O)c3[nH]c(C)c(C)c23)C1` ?
OUT: inactive

IN: Would you mind doing `O=C(Nc1cccc(-n2cc(-c3ccncc3)c(-c3ccc(O)c(Cl)c3)n2)c1)c1ccc(N2CCOCC2)c(C(F)(F)F)c1` as well?
OUT: inactive

IN: Here is the next molecule: `Cc1nc2sc(C(=O)Nc3cccc(Cl)c3C)c(N)c2cc1C(=O)c1ccccc1`
OUT: active

IN: Follow-up entry: C=CCCC(O)c1ccc(CCCCCCCCCCC)o1 (stereo unspecified)
OUT: inactive

IN: One more molecule: `O=C1c2ccccc2CCC1(Br)Br`
OUT: inactive

IN: Field entry: `COc1ccc2c(c1)c(-c1nc(-c3cn(C)c4ncccc34)cs1)cn2CCCCN1CCOCC1`
OUT: inactive

---

System: 786-0 renal
assayInfo: NCI tumour cell line growth inhibition, 48 h
TGI for assorted molecules

Take a look at these entries with their results.
• Cc1cn(CCCCOC(=O)NC(CCCNC(N)=O)C(=O)O)c(=O)[nH]c1=O (stereo unspecified) = > 100 µM
• CCN(CC)CCNc1ccc2ncn3c4c(OC)ccc(=O)c4c(O)c1c23 = > 100 µM
• O=c1nc(-c2ccccc2)scc1-c1ccccc1 = > 100 µM
• CC1=C(c2ccc(C)cc2)NC(=S)C(C)C(c2ccc(C)cc2)=N1 (stereo unspecified) = > 100 µM
• COC(=O)C1=C(OC(=O)/C(=C/c2c(F)cccc2F)c2ccccc2)C(C(=O)OC)[C@@]2(O)[C@@H](C(=O)OC)[C@H](C)C[C@@H]1[C@@H]2C(=O)OC (stereo partly specified) = > 100 µM

IN: May I ask what TGI has been recorded for `COc1cc(O)c2c(c1O)C(=O)c1cc(C)ncc1C2=O` ?
OUT: > 50 µM

IN: And what about the molecule `Cc1nc2sc(C(=O)Nc3cccc(Cl)c3C)c(N)c2cc1C(=O)c1ccccc1` ?
OUT: > 50 µM

IN: Follow-up entry: `CS(=O)(=O)N(CC(=O)O)Cc1ccccc1`
OUT: > 100 µM

IN: // same read-out, input: `O=C(Nn1c(-c2ccccc2)nc2ccccc2c1=O)c1ccc(O)cc1`
OUT: > 100 µM

IN: And then `CN(C)C=Nc1c(Br)cc(Br)c2nonc12` , what is it?
OUT: > 100 µM

IN: What do you get for COC(=O)C1=C(C)N(NC(=O)c2cccc(Cl)c2)C(C)(O)C12CCOC2=O (stereo unspecified) ?
OUT: > 100 µM
